Data origin: paper PMC8434392

biological target: human recombinant KOR (Homo sapiens); construct: expressed in transfected cells; host or cells: CHO cells (gift from Prof. Girolamo Calo', Ferrara University); experiment: Calcium mobilization assay, CHO KOR cells with Gαqi5; type: cell-based; settings: calcium mobilization, CHO KOR Gαqi5; maximum tested concentration 10 µM; crc = concentration-response curve
Sequence (P41145 whole entry): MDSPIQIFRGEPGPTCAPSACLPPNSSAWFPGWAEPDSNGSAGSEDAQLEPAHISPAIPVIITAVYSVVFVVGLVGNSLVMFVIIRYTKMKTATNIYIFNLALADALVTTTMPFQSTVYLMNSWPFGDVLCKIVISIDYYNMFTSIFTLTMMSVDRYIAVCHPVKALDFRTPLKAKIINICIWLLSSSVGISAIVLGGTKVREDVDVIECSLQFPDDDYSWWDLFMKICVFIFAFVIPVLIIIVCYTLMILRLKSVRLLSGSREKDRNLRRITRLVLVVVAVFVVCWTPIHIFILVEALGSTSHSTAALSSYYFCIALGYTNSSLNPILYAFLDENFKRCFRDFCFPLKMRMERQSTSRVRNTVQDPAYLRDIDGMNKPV
REPORTED_PROPERTY: KOR EC50 ± SEM (nM)

| MOLECULE | RECORDED_VALUE |
| --- | --- |
| Cc1cc(O)cc(C)c1C[C@H](N)C(=O)N[C@H](CCCNC(=N)N)C(=O)N[C@H]1Cc2ccccc2CN(CCC(N)=O)C1=O [KGOP01, H-Dmt-D-Arg-Aba-βAla-NH2, reference compound] | crc incomplete |
| C[C@@H](NC(=O)[C@@H](N)Cc1ccc(O)cc1)C(=O)N[C@@H](Cc1ccccc1)C(=O)NCC(=O)N[C@@H](Cc1ccc(O)cc1)C(=O)N1CCC[C@H]1C(=O)N[C@@H](CO)C(N)=O [dermorphin, reference compound] | inactive |
| CC[C@H](NC(=O)c1c(OCCNC(=O)CCN2Cc3ccccc3C[C@H](NC(=O)[C@@H](CCCNC(=N)N)NC(=O)[C@@H](N)Cc3c(C)cc(O)cc3C)C2=O)c(-c2ccccc2)nc2ccccc12)c1ccccc1 [SBL-OPNK-9] | crc incomplete |
| CC1(C)SSC(C)(C)[C@@H](NC(=O)[C@@H](N)Cc2ccc(O)cc2)C(=O)NCC(=O)N[C@@H](Cc2ccccc2)C(=O)N[C@H]1C(=O)O [DPDPE, reference compound] | inactive |
